Below, each of the compounds is paired with its reported melting point value.

Quick one: melting point for COc1cc(C)c(Nc2nnc3n2C(c2ccc(F)cc2)CS(=O)(=O)C3)cc1OC (stereo not shown) [Compound 19] ?
226 to 227 °C

Further cases:
Quick one: melting point for COc1cc(C)c(Nc2nnc3n2C(c2ccc(F)cc2)CSC3)cc1OC (stereo not shown) [Compound 18] ?
165 to 166 °C

And Cc1cc2cnn(CCO)c2cc1Nc1nnc2n1[C@H](c1ccc(F)cc1)COC2 [Compound 39] ?
215 to 217 °C

And Cc1cc(Cl)c(OCCO)cc1Nc1nnc2n1[C@H](c1ccc(F)cc1)COC2 [Compound 21] ?
161 to 162 °C
